measurement_notes: Measurement of solubility in water, octanol saturated water and water saturated octanol
conditions_used: log solubility ratio, 25° C.
Label condition met for high-side logSR (Swo/Sow) (at or above 0.4) and condition not met for low-side logSR (Swo/Sow) (below it).

compound="O=C(Oc1ccccc1C(=O)[O-])c1ccccc1O.O=C(Oc1ccccc1C(=O)[O-])c1ccccc1O.[Cu+2].c1ccncc1.c1ccncc1.c1ccncc1 [SAS-6, Cu(SAS)2(Pyridine)3]" class_assignment="condition met"

IN: Decide: logSR (Swo/Sow) of CC(=O)Oc1ccccc1C(=O)[O-].CC(=O)Oc1ccccc1C(=O)[O-].CC(=O)Oc1ccccc1C(=O)[O-].CC(=O)Oc1ccccc1C(=O)[O-].[Cu+2].[Cu+2] [ASP-1, Cu2(ASP)4] >= 0.4?
OUT: condition not met

IN: Same for CC(=O)Oc1ccccc1C(=O)[O-].CC(=O)Oc1ccccc1C(=O)[O-].[Cu+2].c1ccncc1.c1ccncc1 [ASP-5, Cu(ASP)2(Pyridine)2]
OUT: condition not met

IN: Do the same for CCc1ccncc1.CCc1ccncc1.O=C(Oc1ccccc1C(=O)[O-])c1ccccc1O.O=C(Oc1ccccc1C(=O)[O-])c1ccccc1O.[Cu+2] [SAS-9, Cu(SAS)2(4-Et-Pyridine)2] please
OUT: condition met

IN: Similarly, CC(=O)Oc1ccccc1C(=O)[O-].CC(=O)Oc1ccccc1C(=O)[O-].[Cu+2].c1ccc(-c2cccnc2)cc1.c1ccc(-c2cccnc2)cc1 [ASP-9, Cu(ASP)2(3-Phenyl-Pyridine)2] ?
OUT: condition met

---

In this section we review reported Swo values for a set of compounds.
measurement_notes: Measurement of solubility in water, octanol saturated water and water saturated octanol
conditions_used: solubility in water saturated octanol, 25° C.

compound=CC(=O)[O-].CC(=O)[O-].COc1cccc(OC)c1C(=O)[O-].COc1cccc(OC)c1C(=O)[O-].O.O.[Cu+2].[Cu+2] quantity_kind=Swo measured_result="0.5841(103) mg/ml"
compound="CCc1ccncc1.CCc1ccncc1.O=C(Oc1ccccc1C(=O)[O-])c1ccccc1O.O=C(Oc1ccccc1C(=O)[O-])c1ccccc1O.[Cu+2] [SAS-9, Cu(SAS)2(4-Et-Pyridine)2]" quantity_kind=Swo measured_result="1.438(9) mg/ml"
compound="C1CCOC1.C1CCOC1.O=C(Oc1ccccc1C(=O)[O-])c1ccccc1O.O=C(Oc1ccccc1C(=O)[O-])c1ccccc1O.O=C(Oc1ccccc1C(=O)[O-])c1ccccc1O.O=C(Oc1ccccc1C(=O)[O-])c1ccccc1O.[Cu+2].[Cu+2].c1ccc(-c2ccncc2)cc1.c1ccc(-c2ccncc2)cc1 [SAS-5, Cu2(SAS)4(4-Phenyl-Pyridine)2(THF)2]" quantity_kind=Swo measured_result="1.236(18) mg/ml"
compound="CC(=O)Oc1ccccc1C(=O)[O-].CC(=O)Oc1ccccc1C(=O)[O-].NC(=O)c1ccncc1.NC(=O)c1ccncc1.[Cu+2] [ASP-7, Cu(ASP)2(Isonicotinamide)2]" quantity_kind=Swo measured_result="1.673(9) mg/ml"
compound=CC(=O)Oc1ccccc1C(=O)[O-].CC(=O)Oc1ccccc1C(=O)[O-].CC(=O)Oc1ccccc1C(=O)[O-].CC(=O)Oc1ccccc1C(=O)[O-].CN(C)C=O.CN(C)C=O.[Cu+2].[Cu+2] quantity_kind=Swo measured_result="1.463(26) mg/ml"

IN: Please report the recorded Swo for Cc1ccncc1.Cc1ccncc1.O=C(Oc1ccccc1C(=O)[O-])c1ccccc1O.O=C(Oc1ccccc1C(=O)[O-])c1ccccc1O.[Cu+2] [SAS-8, Cu(SAS)2(4-Me-Pyridine)2] .
OUT: 1.932(23) mg/ml

IN: And what about the compound O.O.O=C(Oc1ccccc1C(=O)[O-])c1ccccc1O.O=C(Oc1ccccc1C(=O)[O-])c1ccccc1O.O=C(Oc1ccccc1C(=O)[O-])c1ccccc1O.O=C(Oc1ccccc1C(=O)[O-])c1ccccc1O.[Cu+2].[Cu+2] [SAS-1, Cu2(SAS)4(H2O)2] ?
OUT: 3.200(5) mg/ml

IN: // repeat for CC(=O)Oc1ccccc1C(=O)[O-].CC(=O)Oc1ccccc1C(=O)[O-].NC(=O)c1cccnc1.NC(=O)c1cccnc1.[Cu+2] [ASP-8, Cu(ASP)2(Nicotinamide)2] and report
OUT: 0.7541(97) mg/ml

IN: Consider next the compound CC(=O)Oc1ccccc1C(=O)[O-].CC(=O)Oc1ccccc1C(=O)[O-].CC(=O)Oc1ccccc1C(=O)[O-].CC(=O)Oc1ccccc1C(=O)[O-].[Cu+2].[Cu+2].c1ccc2ncccc2c1.c1ccc2ncccc2c1 in the same way.
OUT: 5.460(23) mg/ml

IN: Repeat with CC(=O)Oc1ccccc1C(=O)O [Aspirin(ASP), acetylsalicylic acid, reference compound]
OUT: 54.16(94) mg/ml

IN: Another compound to look at: CC(=O)Oc1ccccc1C(=O)[O-].CC(=O)Oc1ccccc1C(=O)[O-].[Cu+2].c1ccncc1.c1ccncc1
OUT: 1.210(47) mg/ml

---

measurement_notes: Measurement of solubility in water, octanol saturated water and water saturated octanol
conditions_used: log solubility ratio, 25° C.
As shown below, each of these compounds has a reported logSR (Swo/Sow) value.
Give a plain numeric answer without units written out.

Previously resolved entries follow.
compound="O=C(Oc1ccccc1C(=O)[O-])c1ccccc1O.O=C(Oc1ccccc1C(=O)[O-])c1ccccc1O.O=C(Oc1ccccc1C(=O)[O-])c1ccccc1O.O=C(Oc1ccccc1C(=O)[O-])c1ccccc1O.[Cu+2].[Cu+2].c1ccc(Cc2ccncc2)cc1.c1ccc(Cc2ccncc2)cc1 [SAS-4, Cu2(SAS)4(4-Benzyl-Pyridine)2]" measured_result=1.336
compound="CC(=O)Oc1ccccc1C(=O)[O-].CC(=O)Oc1ccccc1C(=O)[O-].NC(=O)c1cccnc1.NC(=O)c1cccnc1.[Cu+2] [ASP-8, Cu(ASP)2(Nicotinamide)2]" measured_result=−0.6490
compound="Clc1cccnc1.Clc1cccnc1.O=C(Oc1ccccc1C(=O)[O-])c1ccccc1O.O=C(Oc1ccccc1C(=O)[O-])c1ccccc1O.O=C(Oc1ccccc1C(=O)[O-])c1ccccc1O.O=C(Oc1ccccc1C(=O)[O-])c1ccccc1O.[Cu+2].[Cu+2] [SAS-3, Cu2(SAS)4(3-Cl-Pyridine)2]" measured_result=0.7472

Switching to the query record.
IN: Using the record for COc1cccc(OC)c1C(=O)[O-].COc1cccc(OC)c1C(=O)[O-].COc1cccc(OC)c1C(=O)[O-].COc1cccc(OC)c1C(=O)[O-].O.O.[Cu+2].[Cu+2] [MC-3, Cu2(DMB)4(H2O)2] , report its logSR (Swo/Sow).
OUT: −0.9168

---

// values below are reported Swo
measurement_notes: Measurement of solubility in water, octanol saturated water and water saturated octanol
conditions_used: solubility in water saturated octanol, 25° C.

compound=COc1cccc(OC)c1C(=O)[O-].COc1cccc(OC)c1C(=O)[O-].COc1cccc(OC)c1C(=O)[O-].COc1cccc(OC)c1C(=O)[O-].O.O.[Cu+2].[Cu+2] quantity_kind=Swo measured_result="3.872(125) mg/ml"
compound=CC(=O)Oc1ccccc1C(=O)[O-].CC(=O)Oc1ccccc1C(=O)[O-].[Cu+2].c1ccc(-c2cccnc2)cc1.c1ccc(-c2cccnc2)cc1 quantity_kind=Swo measured_result="1.150(20) mg/ml"

// next item, Swo requested
IN: Dear colleague, I am looking for the recorded Swo of the following compound: O=C(Oc1ccccc1C(=O)[O-])c1ccccc1O.O=C(Oc1ccccc1C(=O)[O-])c1ccccc1O.[Cu+2].c1ccncc1.c1ccncc1.c1ccncc1 [SAS-6, Cu(SAS)2(Pyridine)3]
OUT: 1.918(5) mg/ml

---

measurement_notes: Measurement of solubility in water, octanol saturated water and water saturated octanol
conditions_used: solubility in water, 25° C.
Listing of entries alongside the reported Sw.

compound="CC(=O)Oc1ccccc1C(=O)[O-].CC(=O)Oc1ccccc1C(=O)[O-].NC(=O)c1ccncc1.NC(=O)c1ccncc1.[Cu+2] [ASP-7, Cu(ASP)2(Isonicotinamide)2]" measured_result="9.259(5) mg/ml"

IN: Data request, read-out Sw, for COc1cccc(OC)c1C(=O)[O-].COc1cccc(OC)c1C(=O)[O-].COc1cccc(OC)c1C(=O)[O-].COc1cccc(OC)c1C(=O)[O-].O.O.[Cu+2].[Cu+2]
OUT: 33.61(21) mg/ml

IN: Would you kindly repeat that for C1CCOC1.C1CCOC1.O=C(Oc1ccccc1C(=O)[O-])c1ccccc1O.O=C(Oc1ccccc1C(=O)[O-])c1ccccc1O.O=C(Oc1ccccc1C(=O)[O-])c1ccccc1O.O=C(Oc1ccccc1C(=O)[O-])c1ccccc1O.[Cu+2].[Cu+2].c1ccc(-c2ccncc2)cc1.c1ccc(-c2ccncc2)cc1 [SAS-5, Cu2(SAS)4(4-Phenyl-Pyridine)2(THF)2] ?
OUT: 0.0303(3) mg/ml

IN: Ok, now O.O.O=C(Oc1ccccc1C(=O)[O-])c1ccccc1O.O=C(Oc1ccccc1C(=O)[O-])c1ccccc1O.O=C(Oc1ccccc1C(=O)[O-])c1ccccc1O.O=C(Oc1ccccc1C(=O)[O-])c1ccccc1O.[Cu+2].[Cu+2] [SAS-1, Cu2(SAS)4(H2O)2]
OUT: 0.2791(6) mg/ml

IN: What do you get for O=C(Oc1ccccc1C(=O)[O-])c1ccccc1O.O=C(Oc1ccccc1C(=O)[O-])c1ccccc1O.O=C(Oc1ccccc1C(=O)[O-])c1ccccc1O.O=C(Oc1ccccc1C(=O)[O-])c1ccccc1O.[Cu+2].[Cu+2].c1ccc(Cc2ccncc2)cc1.c1ccc(Cc2ccncc2)cc1 [SAS-4, Cu2(SAS)4(4-Benzyl-Pyridine)2] ?
OUT: 0.0134(3) mg/ml

IN: Same lookup for CCc1ccncc1.CCc1ccncc1.O=C(Oc1ccccc1C(=O)[O-])c1ccccc1O.O=C(Oc1ccccc1C(=O)[O-])c1ccccc1O.[Cu+2] [SAS-9, Cu(SAS)2(4-Et-Pyridine)2] , please.
OUT: 0.1143(2) mg/ml

IN: Same lookup for CC(=O)Oc1ccccc1C(=O)[O-].CC(=O)Oc1ccccc1C(=O)[O-].CC(=O)Oc1ccccc1C(=O)[O-].CC(=O)Oc1ccccc1C(=O)[O-].[Cu+2].[Cu+2] , please.
OUT: 3.414(25) mg/ml

IN: And then Cc1ccncc1.Cc1ccncc1.O=C(Oc1ccccc1C(=O)[O-])c1ccccc1O.O=C(Oc1ccccc1C(=O)[O-])c1ccccc1O.[Cu+2] [SAS-8, Cu(SAS)2(4-Me-Pyridine)2] , what is it?
OUT: 0.2301(18) mg/ml

IN: Another: CC(=O)Oc1ccccc1C(=O)[O-].CC(=O)Oc1ccccc1C(=O)[O-].NC(=O)c1cccnc1.NC(=O)c1cccnc1.[Cu+2] [ASP-8, Cu(ASP)2(Nicotinamide)2]
OUT: 4.417(50) mg/ml
